Molecular target: Peregrin (Homo sapiens)
Sequence (whole entry): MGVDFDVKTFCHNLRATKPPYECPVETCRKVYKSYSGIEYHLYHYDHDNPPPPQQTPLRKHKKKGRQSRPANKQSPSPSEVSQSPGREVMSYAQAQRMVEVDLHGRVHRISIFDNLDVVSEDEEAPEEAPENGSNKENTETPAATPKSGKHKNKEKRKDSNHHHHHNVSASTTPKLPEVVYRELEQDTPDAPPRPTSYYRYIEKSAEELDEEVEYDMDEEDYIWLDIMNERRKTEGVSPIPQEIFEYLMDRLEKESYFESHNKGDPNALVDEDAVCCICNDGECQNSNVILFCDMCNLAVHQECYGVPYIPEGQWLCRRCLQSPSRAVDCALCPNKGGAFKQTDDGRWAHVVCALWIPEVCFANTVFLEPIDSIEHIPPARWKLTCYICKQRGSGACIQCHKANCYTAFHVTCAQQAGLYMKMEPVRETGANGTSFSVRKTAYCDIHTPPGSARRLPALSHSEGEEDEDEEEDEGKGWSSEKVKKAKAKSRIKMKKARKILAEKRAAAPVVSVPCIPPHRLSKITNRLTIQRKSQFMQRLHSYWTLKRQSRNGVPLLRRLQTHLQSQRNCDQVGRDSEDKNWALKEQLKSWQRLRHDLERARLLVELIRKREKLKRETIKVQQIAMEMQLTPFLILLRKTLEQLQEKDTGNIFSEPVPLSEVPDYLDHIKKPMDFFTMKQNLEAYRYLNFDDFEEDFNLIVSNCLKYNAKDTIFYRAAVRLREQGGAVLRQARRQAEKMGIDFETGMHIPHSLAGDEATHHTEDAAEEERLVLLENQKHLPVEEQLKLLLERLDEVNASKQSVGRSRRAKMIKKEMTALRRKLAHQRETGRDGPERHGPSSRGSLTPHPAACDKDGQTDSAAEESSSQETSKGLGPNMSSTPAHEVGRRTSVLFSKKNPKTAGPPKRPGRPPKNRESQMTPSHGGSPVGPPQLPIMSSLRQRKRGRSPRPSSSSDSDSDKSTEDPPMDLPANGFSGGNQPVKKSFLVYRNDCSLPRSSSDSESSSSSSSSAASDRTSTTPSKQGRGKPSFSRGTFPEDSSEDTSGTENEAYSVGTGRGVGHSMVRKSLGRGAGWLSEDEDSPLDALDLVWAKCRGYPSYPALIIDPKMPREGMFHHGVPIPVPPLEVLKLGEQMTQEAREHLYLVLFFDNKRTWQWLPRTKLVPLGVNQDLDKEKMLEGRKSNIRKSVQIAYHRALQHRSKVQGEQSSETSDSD
Settings: Compound concentration 20.0 uM, Protein concentration 2.0 uM, Result type QC Liability
Lab note: cut-off is -1 °C. Strictly less in ΔTm is satisfied. Exactly -1 °C or more is not satisfied.

- molecule: "C[C@H](CCC(=O)O)[C@H]1CC[C@H]2[C@@H]3CC[C@@H]4C[C@H](O)CC[C@]4(C)[C@H]3C[C@H](O)[C@]12C"
  group_label: "satisfied"
- molecule: "O=c1cc(C2CCNCC2)n2nc3cccc(Cl)c3c2[nH]1"
  group_label: "satisfied"
- molecule: "Cc1cc(CN)cc(C)c1-c1ncn(C)c1-c1cncn1C"
  group_label: "satisfied"
- molecule: "CNC(=O)c1cc(C(=O)NC2CC2)cn(Cc2ccccc2)c1=O"
  group_label: "not satisfied"
- molecule: "CCc1ccccc1C(=O)Nc1n[nH]c2c(C)c(F)c(C3C(C#N)=C(C)N(C)C(C)=C3C#N)cc12"
  group_label: "satisfied"
- molecule: "N=C(N)NCCC[C@@H](NC(=O)C(c1ccccc1)c1ccccc1)C(=O)NCc1ccc(CNC(N)=O)cc1"
  group_label: "satisfied"
- molecule: "CO[C@H]1C[C@@H]2CC[C@@H](C)[C@@](O)(O2)C(=O)C(=O)N2CCCC[C@H]2C(=O)O[C@H]([C@H](C)C[C@@H]2CC[C@@H](O)[C@H](OC)C2)CC(=O)[C@H](C)/C=C(\\C)[C@@H](O)[C@@H](OC)C(=O)[C@H](C)C[C@H](C)/C=C/C=C/C=C/1C"
  group_label: "satisfied"
- molecule: "O=C(NC[C@@H]1[C@H]2CN(C(=O)OCc3cc(C(F)(F)F)cc(C(F)(F)F)c3)C[C@@H]12)c1ccc2[nH]nnc2c1"
  group_label: "not satisfied"
- molecule: "COc1cc(F)ccc1-c1cc(Nc2cc(CS(C)(=N)=O)ccn2)ncc1F (configuration not stated)"
  group_label: "satisfied"
- molecule: "O=C(N[C@H](Cc1ccccc1)C(=O)O)c1cccc(OCc2cccnc2)c1"
  group_label: "satisfied"
- molecule: "c1ccc(C2CCN(c3cnc4c(N5CCOCC5)nccn34)CC2)cc1"
  group_label: "not satisfied"
- molecule: "COCCN1CCN(CCn2ccc(Nc3ncc4c(n3)-c3c(nn(C)c3-c3ccccc3)C[C@H]4C)n2)CC1"
  group_label: "not satisfied"
- molecule: "COc1ccc(-c2c(-c3ccccc3)oc3ncnc(O[C@H](C)CCCCC(=O)O)c23)cc1"
  group_label: "satisfied"
- molecule: "COc1nc2ccc([C@@](O)(c3ccccc3)C3CCN(C(C)=O)CC3)cc2c(Cl)c1Cc1ccc(-n2cccn2)cc1"
  group_label: "satisfied"
- molecule: "Cc1cn([C@@H](C)CC#N)c(=O)c2cc(Cn3nc(C(F)F)cc3Cl)nn12"
  group_label: "satisfied"
- molecule: "CCS(=O)(=O)c1cc2cc(C[C@](O)(CC(C)(C)c3ccc(F)cc3C(N)=O)C(F)(F)F)[nH]c2cn1"
  group_label: "satisfied"
- molecule: "CN(C)C/C=C/C(=O)Nc1ccc(C(=O)Nc2cccc(Nc3ncc(Cl)c(-c4c[nH]c5ccccc45)n3)c2)cc1"
  group_label: "not satisfied"
